# Tgt: Phospholipase A2 (PLA2) (Rattus norvegicus, UniProt P14423)
# Construct: The PLA2 employed in this screen is obtained by aggregation of purified rat platelets; from tissue; host or cells: purified rat platelets, enzyme obtained by aggregation
# Sequence (P14423 22-146): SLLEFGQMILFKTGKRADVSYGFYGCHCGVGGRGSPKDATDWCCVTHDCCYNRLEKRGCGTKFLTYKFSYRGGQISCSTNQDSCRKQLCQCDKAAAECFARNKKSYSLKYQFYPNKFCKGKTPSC
# Test method notes: In Vitro Assay for Inhibitors of Phospholipase A2 (PLA2), rat platelets (Protocol II)
# Assay type: biochemical
Experimental endpoint: IC50 (µM)
Report as a plain number; the unit µM is understood.

Prompt line: What value of measured IC50 is listed for CC(=O)Nc1ccc(OC(=O)/C=C/C=C(C)/C=C/C=C(C)/C=C/C2=C(C)CCCC2(C)C)cc1 ?
Response line: 17

---

# Tgt: 5-Lipoxygenase (Rattus norvegicus, UniProt P12527)
# Construct: endogenous in cells
# Sequence (P12527 whole entry): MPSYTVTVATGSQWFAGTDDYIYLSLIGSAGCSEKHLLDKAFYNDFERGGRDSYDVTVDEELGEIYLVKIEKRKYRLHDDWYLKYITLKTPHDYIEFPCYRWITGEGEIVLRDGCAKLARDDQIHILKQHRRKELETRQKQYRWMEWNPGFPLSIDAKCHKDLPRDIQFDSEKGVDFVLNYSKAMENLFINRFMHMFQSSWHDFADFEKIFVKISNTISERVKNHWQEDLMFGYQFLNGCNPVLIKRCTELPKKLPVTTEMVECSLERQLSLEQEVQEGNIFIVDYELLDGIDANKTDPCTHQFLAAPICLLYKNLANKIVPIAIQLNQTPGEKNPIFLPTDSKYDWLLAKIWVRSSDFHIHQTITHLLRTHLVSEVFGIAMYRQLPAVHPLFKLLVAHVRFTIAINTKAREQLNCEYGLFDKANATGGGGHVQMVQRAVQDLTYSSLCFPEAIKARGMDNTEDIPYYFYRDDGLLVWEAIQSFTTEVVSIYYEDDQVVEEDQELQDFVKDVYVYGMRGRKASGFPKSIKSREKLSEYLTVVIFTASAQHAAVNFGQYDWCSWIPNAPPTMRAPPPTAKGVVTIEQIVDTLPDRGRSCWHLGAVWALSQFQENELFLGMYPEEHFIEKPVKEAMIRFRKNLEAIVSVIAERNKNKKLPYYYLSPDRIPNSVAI
# Test method notes: Inhibition of 5-Lipoxygenase, rat PMN (Protocol 1)
# Assay conditions: rat neutrophils; [14C]-arachidonic acid and Calcium Ionophore A23187; 3 minutes at 30° C.; 5-HETE formation; read-out: Lox, Rat PMN (I50)
Give pIC50 for every item shown.
By convention, pIC50 is the negative base-10 log of a molar concentration.

Prompt line: Look up pIC50 for this compound: CC1=C(/C=C/C(C)=C/C=C/C(C)=C/C(=O)O)C(C)(C)CCC1 [all trans retinoic acid, reference compound]
Response line: 4.05

Prompt line: Request: CC(=O)Nc1ccc(OC(=O)/C=C(C)/C=C/C=C(C)/C=C/C2=C(C)CCCC2(C)C)cc1 [Example 1, 4-Acetamidophenyl Retinoate]
Response line: 4.25

Prompt line: Item: CC(=O)Nc1cccc(OC(=O)/C=C(C)/C=C/C=C(C)/C=C/C2=C(C)CCCC2(C)C)c1 [Example 2, 3-Acetamidophenyl Retinoate]
Response line: 4.26

Prompt line: Same thing, different compound: CC(=O)Nc1ccc(SC(=O)/C=C(C)/C=C/C=C(C)/C=C/C2=C(C)CCCC2(C)C)cc1 [Example 3]
Response line: 5.64

---

# Tgt: Phospholipase A2 (PLA2) (Rattus norvegicus, UniProt P14423)
# Construct: The PLA2 employed in this screen is obtained by aggregation of purified rat platelets; from tissue; host or cells: purified rat platelets, enzyme obtained by aggregation
# Test method notes: In Vitro Assay for Inhibitors of Phospholipase A2 (PLA2), rat platelets (Protocol II)
# Format: biochemical
# Assay conditions: rat platelets PLA2; phosphatidylcholine substrate; pH 7.2; 37° C.; 30 minutes; read-out: PHOSPHOLIPASE A2 INHIBITION Activity (I50)
Experimental endpoint: IC50 (µM)
Numeric answer only, unit µM assumed.

Prompt line: Test system Phospholipase A2 (PLA2) (Rattus norvegicus, UniProt P14423); read-out IC50; what value for CC(=O)Nc1ccc(SC(=O)/C=C(C)/C=C/C=C(C)/C=C/C2=C(C)CCCC2(C)C)cc1 ?
Response line: 34

Prompt line: Another: CC(=O)Nc1ccc(OC(=O)/C=C(C)/C=C/C=C(C)/C=C/C2=C(C)CCCC2(C)C)cc1 [Example 1, 4-Acetamidophenyl Retinoate]
Response line: 56

Prompt line: How about CC(=O)Nc1cccc(OC(=O)/C=C(C)/C=C/C=C(C)/C=C/C2=C(C)CCCC2(C)C)c1 [Example 2, 3-Acetamidophenyl Retinoate] ?
Response line: 48
